B1: Twister Ribozyme (parent)
chain: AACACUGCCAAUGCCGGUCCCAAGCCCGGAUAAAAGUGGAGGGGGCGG

Variants of: B1
test.details: self-cleavage, relative activity (ratio to wild type); higher = more cleavage; co-transcriptional
// map self-cleavage onto a label; ranges LOW: < 0.1; MID: ≥ 0.1 and < 0.3; HIGH: ≥ 0.3

Exam item: assign C8U G45A to the correct category.
HIGH

Next variant up: A1U G43C
LOW

Next variant up: C25U A33G
HIGH

Next variant up: C14G G48A
LOW

Next variant up: U18C C26G
LOW

Next variant up: C21G C27A
LOW

Next variant up: U12G G43C
MID

Next variant up: U31G A33C
HIGH

Next variant up: U31C A33C
HIGH

Next variant up: A35G C46U
HIGH

Next variant up: G13A G29C
HIGH

Next variant up: C19U G36C
MID

Hello, the source for this data is the RNAGym collection of RNA variant scans (doi:10.7554/elife.80360), in case you need it.
